# method.notes: PET hydrolysis, aromatic products released after 48 h (umol product/mg enzyme); higher = more PET depolymerization activity
# experimental.setup: substrate: aFilm; 40 °C; pH 4.5
value.type: PET hydrolysis
One number for each entry.

State its PET hydrolysis: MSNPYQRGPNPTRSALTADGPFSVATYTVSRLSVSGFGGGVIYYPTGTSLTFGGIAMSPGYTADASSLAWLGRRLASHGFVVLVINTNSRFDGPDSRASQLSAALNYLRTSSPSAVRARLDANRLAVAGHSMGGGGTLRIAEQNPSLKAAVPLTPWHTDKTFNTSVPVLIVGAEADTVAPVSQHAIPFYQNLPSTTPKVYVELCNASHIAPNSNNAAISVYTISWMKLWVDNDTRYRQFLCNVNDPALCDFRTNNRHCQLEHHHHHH [LCC-ICCG]
8.5

---

# method.notes: purified protein yield per well (BCA); higher = higher soluble expression
Provide the reported purified protein yield per well of each item.
Give bare numbers, in µg.

sequence.text	value.observed
SNPTPTPTPTPTPTPTPGNNPFQRGPNPTLSFIEANSGPYSVRTSRVSSYTSGFGGGTIHYPTGQSGTMGAIVVIPGFVSAESSIEWWGPKLASHGFVVMTIDTNSGFDQPPSRARQINAALDYLVAQNRSSRSPVRGMIDTNRLGVVGWSMGGGGTLRVASEGRIKAAIPLAPWDTTSFRNVKAPTLIFACESDVIAPVGQHASPFYNELPSNISKAFVELNGGSHYCGNGGNSYNDVLSRFGVSWMKRFLDNDTRYSQFLCGPNHTSDRDISEYRGNCNY [ESM042]	73.3

Shifting focus to the sequence that follows.
State its purified protein yield per well: DEIGQAPTSSNITGNGSFSVATYNISSLVSGFGGGVAYYPTTSGRYPVIAVSPGFTARWSSISWIGPRLASWGFVVVGIETNSIYDQPGSRGSQLLAALNWAVNSAPSSVRDRVDGSRRGVAGHSMGGGGTLEALAADTTGLVKAGVPIAPWNTDTTWGGLNEAVQIVGGESDTIAPVSSHSIPFYSTLGGPKSYVELNGASHFFPQTSNSTLSRALVSWFKRYLNNDARFTPFTCGYSGLSISDFRSNNC [ESM144]
89.1

---

# method.notes: PET hydrolysis, aromatic products released after 48 h (umol product/mg enzyme); higher = more PET depolymerization activity
# experimental.setup: substrate: cryPow; 60 °C; pH 6.5
value.type: PET hydrolysis
One number for each entry.

State its PET hydrolysis: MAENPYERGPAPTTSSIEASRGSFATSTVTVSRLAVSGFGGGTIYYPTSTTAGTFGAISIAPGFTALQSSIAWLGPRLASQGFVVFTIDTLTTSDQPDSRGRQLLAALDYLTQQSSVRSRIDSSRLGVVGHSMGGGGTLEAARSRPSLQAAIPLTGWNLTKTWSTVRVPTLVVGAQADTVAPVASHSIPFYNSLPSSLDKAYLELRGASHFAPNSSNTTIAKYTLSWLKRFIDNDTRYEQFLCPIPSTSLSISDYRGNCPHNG [TEP182]
12.5

---

# method.notes: purified protein yield per well (BCA); higher = higher soluble expression
value.type: purified protein yield per well (µg)
Give bare numbers, in µg.

sequence.text	purified protein yield per well / µg
QYQKGPDPTVAGLERDGTFAIRTTTVSRLSASGFGGGTIYYPTATGSYGVVAVSPGFTAYQSSISWIGSRLASHGFVVITIDTNTTSDQPDSRARQLKAALDKVVSLASSRTNVLYGKVDSSRLAVAGHSMGGGGSLAAARDYPSLKASVPLAPWHTTKSFSTVRVPTLIVGADGDTVASVTSHSIPFYTSIPSSTPKGYLELNNEDHFFPQDSGEYGLVGKYMISWFKRFVDSDTRYSPFLCGAPHQTQIANTLRVSDSRTNCPY [DP038]	54

Shifting focus to the sequence that follows.
State its purified protein yield per well: DTNPFQRGPAPTEASVSAQKGPFATAQVNVPANSGEGFNDGTIYYPTDTSQGTFGAIAVMPGFLSPQDWIRWYGPTLASQGFVVMTLDSKGFIDSPTARGNQLLAALDYLTTKSKVVDRIDTSRLGVVGWSMGGGGALESTYNRPSLKADVALAPWHVGLDQSKITVPSLILADDNDWLAPTGSFAKPFYAGIPESTNKAFIELKNANHFTFTGYNKNIAKYAVSWLKRFVDDDTRYDQFLCPKPATNNEISQSEETCPLH [DP054]
39
